tested on: M14 melanoma; test: NCI-60 one-dose screen, 48 h (100 = growth as untreated, 0 = no growth, -100 = all killed); settings: 10 µM unless noted
Compounds without any hit were thinned out: in the full panel of roughly 83,000, 20% have a hit.
growth under 20% gets 1, anything at or over 20% gets -1.

Query: Answer whether the compound Fc1ccc(F)c(CNc2nc(SCCN3CCOCC3)nc3c2cnn3CC(Cl)c2ccc(Br)cc2)c1 (centres undefined) has growth strictly less than 20%
Response: 1

Query: Take the compound `COc1cc(/C=C/C(=O)c2cnn(-c3cc(=O)[nH]c4ccc(C)cc34)c2C)cc(OC)c1OC` and say whether its growth is less than 20%.
Response: 1

Query: API: query returns whether the compound falls strictly under 20% in growth. Query: `COc1cncc(-c2ccc3ncnc(N4CCc5ccc(Cl)cc54)c3c2)c1`
Response: 1

Query: Check if growth falls below 20% for `O=C1/C(=C/c2cccc3c2OCO3)Cc2c(F)cc(Br)cc21` .
Response: -1

Query: Is it true that growth reported for CN(C)CCOc1ccc(C(=O)C2[C@H](c3ccc(Cl)cc3)[C@@H](c3ccccc3)NC23C(=O)Nc2ccc(Cl)cc23)cc1 (some centres undefined) is less than 20%?
Response: 1

Query: Just wondering, is growth of `COc1ccc(-c2nc3ccc(-c4nnc(SCc5ccccc5)o4)cc3[nH]2)cc1OC` below 20%?
Response: -1

Query: Could you please tell me whether growth recorded for `Cn1cc(-c2cc(N)n3nc(-c4c[nH]c5ccc(F)cc45)cc3n2)c2cccnc21` is less than 20%?
Response: 1

Query: Say whether its growth is strictly beneath 20%. Entry: CCN1C(=O)N(CC)C2NNC(Sc3c(C(=O)O)c4ccccc4n(CCC(C)C)c3=O)=NC21 (centres undefined)
Response: 1

Query: Take the compound `O=C(CSc1nc2ccccc2c(=O)[nH]1)Nc1ccccc1C(=O)O` and say whether its growth is less than 20%.
Response: -1

Query: For `COc1ccc(-c2cc(-c3ccccc3)c(C#N)c(=O)[nH]2)cc1S(N)(=O)=O` , is the recorded growth below the cut-off of 20%?
Response: -1

Query: # check: growth < 20% for `COc1ccc2[nH]cc(-c3cc(N)n4nc(-c5c[nH]c6ccccc56)cc4n3)c2c1`
Response: 1

Query: Please indicate whether the reported growth of `C=CCSc1nnc(-c2ccc(-c3nc4ccc(Cl)cc4[nH]3)cc2)o1` is strictly below 20%.
Response: -1

Query: In the record for `CC(C)(C)OC(=O)N1C/C(=C\c2ccc(F)cc2)C(=O)/C(=C/c2ccc(F)cc2)C1` , is growth less than 20%?
Response: 1

Query: is_below(growth, 20%) for `OC(c1ccccc1)(c1ccccc1)C1CCN(c2ccc3nnc(Cl)n3n2)CC1` ?
Response: -1

Query: # strict comparison: is reported growth < 20%? input = `COc1ccc2[nH]c(O)c(N=Nc3nc(-c4ccc(Br)cc4)cs3)c2c1`
Response: 1

Query: Here's an entry: `O=c1ccc(Cn2c(C(F)(F)F)cc3c(Cl)ncnc32)c[nH]1` . Is its growth below 20%?
Response: 1

Query: is_below(growth, 20%) for `O=C(NC(=S)N1CCN(c2ncnc3c2cnn3-c2ccccc2)CC1)c1ccc(Br)cc1` ?
Response: -1

Query: Answer whether the compound CC1CCc2c(sc3nc(SCC(=O)c4cccc([N+](=O)[O-])c4)n(-c4ccccc4)c(=O)c23)C1 (centres undefined) has growth strictly less than 20%
Response: -1

Query: # check: growth < 20% for `COc1ccc(N=Nc2c(N)nn3c(-c4cc5ccccc5oc4=O)ccnc23)cc1`
Response: -1
